Target: SER-1trunc
Conditions: beta-lactam substrate and mode only in supplement
outcomeMeasure: Ki (µM)
Write the value in µM as a bare number.

Fill in: Ki of O=C(O)[C@H]1/C(=C/CO)O[C@@H]2CC(=O)N21 [CA, clavulanic acid] is ___ 290
